These entries and their values trace back to patent US20170096636A1.

assayExplanation: Quantum yield for generation of singlet oxygen, time-resolved 1O2 phosphorescence
Type: physicochemical
conditionNotes: air-saturated MeOH, TMR-Se as reference
Respond with label 1 for Φ(^1O2), MeOH values of 0.5 and above, label 0 for values below.

(Q) // inclusive: Φ(^1O2), MeOH at least 0.5? input: "CCN(CC)C(=S)c1ccc(-c2c3ccc(=[N+](C)C)cc-3[se]c3cc4c(cc23)C(C)(C)CCN4C)s1.[Cl-]"
(A) label 1

(Q) I'd appreciate it if you could say whether "CN1CCC(C)(C)c2cc3c(-c4ccc(C(=O)N5CCCCC5)s4)c4ccc(=[N+](C)C)cc-4[se]c3cc21.[Cl-]" has Φ(^1O2), MeOH at least equal to 0.5.
(A) label 0

(Q) Answer whether Φ(^1O2), MeOH of "CN(C)c1ccc2c(-c3ccc(C(=O)N4CCCCC4)s3)c3cc4c5c(c3[se+]c2c1)CCCN5CCC4.[Cl-]" is greater than or equal to 0.5.
(A) label 0

(Q) Quick check, Φ(^1O2), MeOH >= 0.5? "CN1CCC(C)(C)c2cc3c(-c4ccc(C(=S)N5CCCCC5)s4)c4ccc(=[N+](C)C)cc-4[se]c3cc21.[Cl-]"
(A) label 0
